# experimentalSystem: DDR1 (Homo sapiens (Human))
# Sequence (Q08345 19-913): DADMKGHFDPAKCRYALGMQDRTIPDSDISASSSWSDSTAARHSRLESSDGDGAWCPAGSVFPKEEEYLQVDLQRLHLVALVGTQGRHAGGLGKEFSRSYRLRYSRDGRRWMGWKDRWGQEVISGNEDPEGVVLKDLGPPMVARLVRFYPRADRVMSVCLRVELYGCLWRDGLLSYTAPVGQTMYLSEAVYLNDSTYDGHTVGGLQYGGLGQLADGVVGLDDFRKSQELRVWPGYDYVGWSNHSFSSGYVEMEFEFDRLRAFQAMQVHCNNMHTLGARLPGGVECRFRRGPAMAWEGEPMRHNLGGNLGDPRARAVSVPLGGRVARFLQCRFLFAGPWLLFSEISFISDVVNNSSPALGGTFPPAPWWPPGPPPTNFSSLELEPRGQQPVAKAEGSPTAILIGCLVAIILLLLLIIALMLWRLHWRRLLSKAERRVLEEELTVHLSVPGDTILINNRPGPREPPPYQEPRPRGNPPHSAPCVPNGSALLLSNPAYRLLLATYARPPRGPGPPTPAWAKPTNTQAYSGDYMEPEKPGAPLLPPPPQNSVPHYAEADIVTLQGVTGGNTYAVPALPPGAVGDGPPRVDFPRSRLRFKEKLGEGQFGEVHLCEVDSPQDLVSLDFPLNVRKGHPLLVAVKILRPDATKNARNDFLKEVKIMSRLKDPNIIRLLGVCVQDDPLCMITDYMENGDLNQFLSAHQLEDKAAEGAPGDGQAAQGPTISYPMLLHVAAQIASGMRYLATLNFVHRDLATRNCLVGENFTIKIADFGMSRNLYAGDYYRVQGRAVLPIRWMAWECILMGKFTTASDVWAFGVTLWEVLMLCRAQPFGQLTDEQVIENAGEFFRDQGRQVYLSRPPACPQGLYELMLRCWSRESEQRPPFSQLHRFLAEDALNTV
# procedureText: Measurement of DDR1 enzyme inhibitory activity (phosphorylation of biotinylated peptide, time-resolved fluorescence)
# Assay type: biochemical
# reportedConditions: human DDR1 enzyme, biotinylated peptide phosphorylation; read-out: DDR1 enzyme inhibition assay IC50
property: IC50 (µM)

{"smiles": "CCSc1ccc(Cl)cc1Nn1cnc2ncc(C(F)(F)F)cc2c1=O", "IC50 / µM": 0.16}

P. CCSc1ccc(Cl)cc1Nn1cnc2ccc(I)cc2c1=O
Q. CCSc1ccc(Cl)cc1Nn1cnc2cc3c(cc2c1=O)OCCO3
R. CCS(=O)(=O)c1ccc(Cl)cc1Nn1cnc2c(Br)cc(C)cc2c1=O
S. CCSc1ccc(Cl)cc1Nn1cnc2cnc(F)cc2c1=O
Sort the 4 compounds by IC50; largest first, smallest last. Labels, requested order.
Q, S, P, R
